Recorded values, source ChEMBL document CHEMBL4680292.

tested on: MHCC97H; assay: Anticancer activity against human MHCC97H cells assessed as inhibition of cell proliferation measured after 72 hrs by MTT assay; type: functional, cell-based
Measured endpoint: IC50 (nM)
# output: bare number, implied unit nM

# compound COc1ccc2cc1Oc1ccc(cc1)Cc1nccc3c4c(c(OC)c(c13)Oc1c3c(cc(OC)c1OC)[C@H](C2)N(C)CC3)OCO4 ; its IC50 = 145
